system: T-Rex 293 cell line SC3 cells lacking increased expression of androgen receptor protein; assay: Cellular growth inhibition assay, T-Rex 293 SC3 cells without doxycycline (CellTiter-Glo, 72 hours); type: cell-based; conditions: 72 h, T-Rex 293 cell line SC3 cells not exposed to doxycycline (lacking increased androgen receptor expression)
assay metric: GI50

{"columns": ["molecule", "result value"],
 "data": [
  ["Cc1sc2c(c1C)C(c1ccc(C(C)(C)N3CC4(CCCN(c5ccc(C(=O)N[C@H]6CC[C@H](Oc7ccc(C#N)c(Cl)c7)CC6)nn5)C4)C3)cc1)=N[C@@H](Cc1ncco1)c1nnc(C)n1-2 [I-392]", "> 3 µM"],
  ["Cc1sc2c(c1C)C(c1ccc(N3CCC(CN4CCN(c5ccc(C(=O)N[C@H]6CC[C@H](Oc7ccc(C#N)c(Cl)c7)CC6)nn5)CC4)CC3)cc1)=NC1(CC1)c1nnc(C)n1-2 [I-480]", "0.5 to 1.5 µM"],
  ["Cc1sc2c(c1C)C(c1ccccc1OC1CCC3(CC1)CCN(c1ccc(C(=O)N[C@H]4CC[C@H](Oc5ccc(C#N)c(Cl)c5)CC4)nn1)C3)=N[C@@H](C)c1nnc(C)n1-2 (some centres unmarked) [I-752]", "< 0.5 µM"],
  ["Cc1sc2c(c1C)C(c1ccc(CN3CC(=O)N4C[C@H](c5ccc(C(=O)N[C@H]6CC[C@H](Oc7ccc(C#N)c(Cl)c7)CC6)nn5)C[C@H]4C3=O)cc1)=N[C@@H](Cc1ncco1)c1nnc(C)n1-2 [I-343]", "> 3 µM"],
  ["Cc1sc2c(c1C)C(c1ccc(CC[C@@H]3CC[C@@]4(CCCN(c5ccc(C(=O)N[C@H]6CC[C@H](Oc7ccc(C#N)c(Cl)c7)CC6)nn5)C4)C3)cc1)=N[C@H](Cc1ncco1)c1nnc(C)n1-2 [I-216]", "< 0.5 µM"]
]}

###

GI50 values by entry
system: T-Rex 293 cell line SC3 cells lacking increased expression of androgen receptor protein; test: Cellular growth inhibition assay, T-Rex 293 SC3 cells without doxycycline (CellTiter-Glo, 72 hours); type: cell-based; details: 72 h, T-Rex 293 cell line SC3 cells not exposed to doxycycline (lacking increased androgen receptor expression)
assay metric: GI50

{"columns": ["compound", "result value"],
 "data": [
  ["CC[C@@H]1N=C(c2ccc(C3CCC4(CCCN(c5ccc(C(=O)N[C@H]6CC[C@H](Oc7ccc(C#N)c(Cl)c7)CC6)nn5)C4)CC3)cc2)c2c(sc(C)c2C)-n2c(C)nnc21 (stereo partly shown) [I-652]", "> 3000 nM"],
  ["Cc1sc2c(c1C)C(c1ccc(OC3CN(C(C)(C)C4CCN(c5ccc(C(=O)N[C@H]6CC[C@H](Oc7ccc(C#N)c(Cl)c7)CC6)nn5)CC4)C3)cc1)=N[C@@H](C)c1nnc(C)n1-2 [I-587]", "< 500 nM"],
  ["Cc1sc2c(c1C)C(c1ccc(N3CCC4(CC3)CCN(c3ccc(C(=O)N[C@H]5CC[C@H](Oc6ccc(C#N)c(Cl)c6)CC5)nn3)C4)nc1)=NC1(CC1)c1nnc(C)n1-2 [I-477]", "500 to 1500 nM"],
  ["Cc1sc2c(c1C)C(c1ccc(OCC3CC4(CCCN(c5ccc(C(=O)N[C@H]6CC[C@H](Oc7ccc(C#N)c(Cl)c7)CC6)nn5)C4)C3)cn1)=N[C@@H](C)c1nnc(C)n1-2 (stereo partly shown) [I-482]", "< 500 nM"],
  ["Cc1sc2c(c1C)C(c1ccc(C#CC3CC4(C3)CN(c3ccc(C(=O)N[C@H]5CC[C@H](Oc6ccc(C#N)c(Cl)c6)CC5)nn3)C4)nc1)=N[C@@H](C)c1nnc(C)n1-2 [I-426]", "< 500 nM"],
  ["CCNC(=O)C[C@@H]1N=C(c2ccc(OCCOC3CCN(c4ccc(C(=O)N[C@H]5CC[C@H](Oc6ccc(C#N)c(Cl)c6)CC5)nn4)CC3)cc2)c2c(sc(C)c2C)-n2c(C)nnc21 [I-8]", "< 500 nM"],
  ["CCNC(=O)C[C@@H]1N=C(c2ccc(N3CCC(OC4CN(c5ccc(C(=O)N[C@H]6CC[C@H](Oc7ccc(C#N)c(Cl)c7)CC6)nn5)C4)CC3)cc2)c2c(sc(C)c2C)-n2c(C)nnc21 [I-58]", "500 to 1500 nM"],
  ["Cc1sc2c(c1C)C(c1ccc(OC3CC4(C3)CC3(CCN(c5ccc(C(=O)N[C@H]6CC[C@H](Oc7ccc(C#N)c(Cl)c7)CC6)nn5)CC3)C4)cn1)=N[C@@H](C)c1nnc(C)n1-2 [I-465]", "> 3000 nM"],
  ["CCNC(=O)C[C@@H]1N=C(c2cccc(OCCOCCOCCOC3CCN(c4ncc(C(=O)N[C@H]5CC[C@H](Oc6ccc(C#N)c(Cl)c6)CC5)cn4)CC3)c2)c2c(sc(C)c2C)-n2c(C)nnc21 [I-11]", "> 3000 nM"],
  ["CC[C@@H]1N=C(c2ccc(N3CCC4(CCN(c5ccc(C(=O)N[C@H]6CC[C@H](Oc7ccc(C#N)c(Cl)c7)CC6)nn5)CC4)C3)cc2)c2c(sc(C)c2C)-n2c(C)nnc21 [I-599]", "> 3000 nM"]
]}

###

GI50 values by entry
tested on: T-Rex 293 cell line SC3 cells lacking increased expression of androgen receptor protein; assay: Cellular growth inhibition assay, T-Rex 293 SC3 cells without doxycycline (CellTiter-Glo, 72 hours); assay type: cell-based; details: 72 h, T-Rex 293 cell line SC3 cells not exposed to doxycycline (lacking increased androgen receptor expression)

{"columns": ["compound", "target desc", "GI50"],
 "data": [
  ["Cc1sc2c(c1C)C(c1ccc(C3CCC4(CC3)CCN(c3ccc(C(=O)N[C@H]5CC[C@H](Oc6ccc(C#N)c(Cl)c6)CC5)nn3)CC4)cc1)=NC1(CC1)c1nnc(C)n1-2 [I-532]", "T-Rex 293 cell line SC3 cells lacking increased expression of androgen receptor protein", "> 3 µM"],
  ["Cc1sc2c(c1C)C(c1ccc(CCN3CCCN(c4ccc(C(=O)N[C@H]5CC[C@H](Oc6ccc(C#N)c(Cl)c6)CC5)nn4)CC3)cc1)=N[C@@H](Cc1ncco1)c1nnc(C)n1-2 [I-128]", "T-Rex 293 cell line SC3 cells lacking increased expression of androgen receptor protein", "< 0.5 µM"],
  ["Cc1sc2c(c1C)C(c1ccc(C#CC3CC4(CCCN(c5ccc(C(=O)N[C@H]6CC[C@H](Oc7ccc(C#N)c(Cl)c7)CC6)nn5)C4)C3)cc1)=NC1(CC1)c1nnc(C)n1-2 (some centres unmarked) [I-445]", "T-Rex 293 cell line SC3 cells lacking increased expression of androgen receptor protein", "> 3 µM"],
  ["Cc1sc2c(c1C)C(c1ccc(OC3CC4(CCN(c5ccc(C(=O)N[C@H]6CC[C@H](Oc7ccc(C#N)c(Cl)c7)CC6)nn5)CC4)C3)cc1)=N[C@@](C)(C(C)c1ncco1)c1nnc(C)n1-2 (some centres unmarked) [I-226]", "T-Rex 293 cell line SC3 cells lacking increased expression of androgen receptor protein", "> 3 µM"],
  ["Cc1sc2c(c1C)C(c1ccc(N(C)CC(=O)NCc3ccc(C(=O)N[C@H]4CC[C@H](Oc5ccc(C#N)c(Cl)c5)CC4)nn3)cc1)=N[C@@H](Cc1ncco1)c1nnc(C)n1-2 [I-332]", "T-Rex 293 cell line SC3 cells lacking increased expression of androgen receptor protein", "> 3 µM"]
]}

###

tested on: T-Rex 293 cell line SC3 cells lacking increased expression of androgen receptor protein; experiment: Cellular growth inhibition assay, T-Rex 293 SC3 cells without doxycycline (CellTiter-Glo, 72 hours); format: cell-based; conditions: 72 h, T-Rex 293 cell line SC3 cells not exposed to doxycycline (lacking increased androgen receptor expression)
GI50 values by entry

{"columns": ["compound", "GI50"],
 "data": [
  ["Cc1sc2c(c1C)C(c1ccc(N3CC(C4CCN(c5ccc(C(=O)N[C@H]6CC[C@H](Oc7ccc(C#N)c(Cl)c7)CC6)nn5)C4)C3)cc1)=N[C@@H](C)c1nnc(C)n1-2 (some centres unmarked)", "< 500 nM"],
  ["Cc1sc2c(c1C)C(c1ccc(OCC3CC4(CCCN(c5ccc(C(=O)N[C@H]6CC[C@H](Oc7ccc(C#N)c(Cl)c7)CC6)nn5)C4)C3)nc1)=NC1(CC1)c1nnc(C)n1-2 (some centres unmarked)", "> 3000 nM"],
  ["Cc1sc2c(c1C)C(c1ccc(NCCN3CCN(c4ncc(C(=O)N[C@H]5CC[C@H](Oc6ccc(C#N)c(Cl)c6)CC5)cn4)CC3)cc1)=NC(Cc1ncco1)c1nnc(C)n1-2 (some centres unmarked)", "< 500 nM"],
  ["Cc1sc2c(c1C)C(c1ccc(C#CCN3[C@H](C)CN(c4ccc(C(=O)N[C@H]5CC[C@H](Oc6ccc(C#N)c(Cl)c6)CC5)nn4)C[C@@H]3C)cc1)=N[C@@H](Cc1ncco1)c1nnc(C)n1-2", "< 500 nM"],
  ["Cc1sc2c(c1C)C(c1ccc(CC3CC4(CCN(c5ccc(C(=O)N[C@H]6CC[C@H](Oc7ccc(C#N)c(Cl)c7)CC6)nn5)CC4)C3)cc1)=N[C@H](Cc1ncco1)c1nnc(C)n1-2", "> 3000 nM"]
]}

Attribution: patent US20260109707A1
